Source of measurements: ChEMBL document CHEMBL1137225

- assay target: Major prion protein (Mus musculus) (UniProt P04925)
- Sequence (P04925 whole entry): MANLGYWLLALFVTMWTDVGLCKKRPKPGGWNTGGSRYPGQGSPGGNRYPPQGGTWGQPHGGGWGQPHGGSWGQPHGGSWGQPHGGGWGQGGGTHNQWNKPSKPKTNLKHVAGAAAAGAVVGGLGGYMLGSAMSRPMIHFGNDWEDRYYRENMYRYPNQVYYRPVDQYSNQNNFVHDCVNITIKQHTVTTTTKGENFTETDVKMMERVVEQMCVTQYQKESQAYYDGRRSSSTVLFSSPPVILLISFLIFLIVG
- assay method text: Inhibition of PrP-res formation in SMB (Scrapie mouse brain) cells at 10 uM; call rule not given here
- Type: functional
Outcomes: 1 (active), -1 (inactive)

structure as smiles: Oc1ccc(/N=C/c2ccc(-c3ccc(/C=N/c4ccc(O)cc4)cc3)cc2)cc1
class: 1

structure as smiles: O=C(Oc1ccccc1)c1ccc(NS(=O)(=O)c2ccc(-c3ccc(S(=O)(=O)Nc4ccc(C(=O)Oc5ccccc5)c(O)c4)cc3)cc2)cc1O
class: -1

structure as smiles: N#Cc1ccc(/N=C/c2ccc(/C=N/c3ccc(C#N)c4ccccc34)cc2)c2ccccc12
class: -1

----------
Control listing for selected molecules.
- assay target: Major prion protein (Mus musculus) (UniProt P04925)
- assay method text: Inhibition of PrPC polymerization by PrP-res at 100 uM
- Type: functional
- Parameters: scale not given: the % may be the effect or the level left

structure as smiles: COC(=O)c1ccc(OC)c(/N=C/c2ccc(/C=N/c3cc(C(=O)OC)ccc3OC)cc2)c1
Control, %: 47
--
structure as smiles: N#Cc1ccc(/N=C/c2ccc(/C=N/c3ccc(C#N)c4ccccc34)cc2)c2ccccc12
Control, %: 148
--
structure as smiles: COC(=O)c1ccc(/N=C/c2ccc(-c3ccc(/C=N/c4ccc(C(=O)OC)cc4O)cc3)cc2)c(O)c1
Control, %: 49
--
structure as smiles: O=C(O)c1ccc(NCc2ccc(CNc3ccc(C(=O)O)cc3O)cc2)c(O)c1
Control, %: 79
--
structure as smiles: O=C(Oc1ccccc1)c1ccc(/N=C/c2ccc(/C=N/c3ccc(C(=O)Oc4ccccc4)c(O)c3)cc2)cc1O
Control, %: 113

----------
- assay target: Major prion protein (Mus musculus)
- assay method text: Inhibition of PrPC polymerization by PrP-res at 100 uM
- Type: functional
- Design: scale not given: the % may be the effect or the level left
Rule: Met for Control not less than 60%, Not met for anything less.

structure as smiles: O=C(O)c1ccc(/N=C/c2ccc(/C=N/c3ccc(C(=O)O)cc3)cc2)cc1
class: Not met
//
structure as smiles: N#Cc1ccc(NC(=O)c2ccc(C(=O)Nc3ccc(C#N)cc3)cc2)cc1
class: Met
//
structure as smiles: COC(=O)c1ccc(/N=C/c2ccc(/C=N/c3ccc(C(=O)OC)c(O)c3)cc2)cc1O
class: Met
//
structure as smiles: C(=N\c1ccccc1)/c1ccc(-c2ccc(/C=N/c3ccccc3)cc2)cc1
class: Met
//
structure as smiles: O=C(Nc1ccc([N+](=O)[O-])cc1O)c1ccc(C(=O)Nc2ccc([N+](=O)[O-])cc2O)cc1
class: Not met
//
structure as smiles: COC(=O)c1ccc(NC(=O)c2ccc(-c3ccc(C(=O)Nc4ccc(C(=O)OC)c(OC)c4)cc3)cc2)cc1OC
class: Met
//
structure as smiles: COC(=O)c1ccc(OC)c(NC(=O)c2ccc(C(=O)Nc3cc(C(=O)OC)ccc3OC)cc2)c1
class: Met
//
structure as smiles: O=C(Nc1ccc([N+](=O)[O-])cc1O)c1ccc(-c2ccc(C(=O)Nc3ccc([N+](=O)[O-])cc3O)cc2)cc1
class: Met
//
structure as smiles: O=C(O)c1ccc(/N=C/c2ccc(/C=N/c3ccc(C(=O)O)cc3O)cc2)c(O)c1
class: Not met
//
structure as smiles: O=C(O)c1cc(/N=C/c2ccc(/C=N/c3ccc(O)c(C(=O)O)c3)cc2)ccc1O
class: Not met
//
structure as smiles: Oc1ccc(/N=C/c2ccc(/C=N/c3ccc(O)cc3)cc2)cc1
class: Met
//
structure as smiles: O=C(Nc1ccccc1)c1ccc(C(=O)Nc2ccccc2)cc1
class: Not met
//
structure as smiles: O=C(Nc1ccccc1)c1ccc(-c2ccc(C(=O)Nc3ccccc3)cc2)cc1
class: Met
//
structure as smiles: O=C(O)c1ccc(/N=C/c2ccc(-c3ccc(/C=N/c4ccc(C(=O)O)cc4O)cc3)cc2)c(O)c1
class: Met
//
structure as smiles: CCOC(=O)c1ccc(/N=C/c2ccc(/C=N/c3ccc(C(=O)OCC)c(O)c3)cc2)cc1O
class: Met
//
structure as smiles: O=C(O)c1ccc(NS(=O)(=O)c2ccc(-c3ccc(S(=O)(=O)Nc4ccc(C(=O)O)cc4O)cc3)cc2)c(O)c1
class: Not met
//
structure as smiles: O=C(Nc1ccccc1O)c1ccc(-c2ccc(C(=O)Nc3ccccc3O)cc2)cc1
class: Met
//
structure as smiles: N#Cc1ccc(/N=C/c2ccc(/C=N/c3ccc(C#N)cc3)cc2)cc1
class: Met
//
structure as smiles: O=C(O)c1cc(NC(=O)c2ccc(C(=O)Nc3cc(C(=O)O)cc(C(=O)O)c3)cc2)cc(C(=O)O)c1
class: Not met
//
structure as smiles: COC(=O)c1ccc(/N=C/c2ccc(/C=N/c3ccc(C(=O)OC)cc3O)cc2)c(O)c1
class: Met
//
structure as smiles: Oc1ccccc1NCc1ccc(CNc2ccccc2O)cc1
class: Met
//
structure as smiles: Cc1ccc(/N=C/c2ccc(/C=N/c3ccc(C)cc3O)cc2)c(O)c1
class: Met
//
structure as smiles: COC(=O)c1ccc(NC(=O)c2ccc(C(=O)Nc3ccc(C(=O)OC)cc3O)cc2)c(O)c1
class: Met
//
structure as smiles: COC(=O)c1cc(NC(=O)c2ccc(-c3ccc(C(=O)Nc4ccc(O)c(C(=O)OC)c4)cc3)cc2)ccc1O
class: Met
